# Test system: E. coli TESEC Mtb DapB
# assay-protocol: growth (OD600 after 10 h); higher = more growth (less inhibition)
# condition: arabinose induction (level): High; compound 0.1 mM; raw OD600 reference: median of DMSO wells […], cell-free background 0.041
Where a name gives a salt, the structure may show the parent alone.
Assign growth to each entry below.
Give bare numbers.

compound	growth
CC(C)(C(=O)O)c1ccc(C(O)CCCN2CCC(C(O)(c3ccccc3)c3ccccc3)CC2)cc1 (centres undefined) [Fexofenadine HCl]	0.201

Hey, can you go through the list below and give me growth for every item?
1. Cn1c(=O)c2c(ncn2CC(O)CO)n(C)c1=O (centres undefined)
2. Cn1c(=O)c2c(ncn2CC2OCCO2)n(C)c1=O
3. CCN(CC)C(=O)c1ccc(O)c(OC)c1

RESULT:
[0.206, 0.196, 0.196]

====

Kindly state growth for each of the entries shown.
# System: E. coli TESEC Mtb Alr
# assay-protocol: growth (OD600 after 10 h); higher = more growth (less inhibition)
# condition: arabinose 10000 nM; compound 0.1 mM; raw OD600 reference: median of DMSO wells 0.264, cell-free background 0.041
Where a name gives a salt, the structure may show the parent alone.
Numbers only.

Some solved cases for reference:
compound	experimental-system	growth
CC1(C)OC(=O)NC1=O	E. coli TESEC Mtb Alr	0.27
NC(=O)c1cc[n+](CC2=C(C(=O)[O-])N3C(=O)[C@@H](NC(=O)[C@@H](c4ccccc4)S(=O)(=O)O)[C@H]3SC2)cc1 [Cefsulodin sodium salt]	E. coli TESEC Mtb Alr	0.235
CC(C)C(=O)c1c(C(C)C)nn2ccccc12	E. coli TESEC Mtb Alr	0.245
C#C[C@]1(O)CC[C@H]2[C@@H]3CCC4=C(CCC(=O)C4)[C@H]3CC[C@@]21C	E. coli TESEC Mtb Alr	0.107
CCCCc1ccc2[nH]c(NC(=O)OC)nc2c1	E. coli TESEC Mtb Alr	0.277

// each listed compound needs a value for growth
1. CC(C)NC[C@@H](O)COc1ccc(CC(N)=O)cc1 [(R)-(+)-Atenolol]
2. CCN1CCCC(OC(=O)C(c2ccccc2)c2ccccc2)C1 (centres undefined) [Piperidolate hydrochloride]

RESULT:
1. 0.262
2. 0.259

====

# Test system: E. coli TESEC Mtb Alr
# assay-protocol: growth (OD600 after 10 h); higher = more growth (less inhibition)
# condition: arabinose 100 nM; compound 0.1 mM; raw OD600 reference: median of DMSO wells 0.413, cell-free background 0.052
Where a name gives a salt, the structure may show the parent alone.
parameter-measured: growth
Answers are plain numbers.

Illustrative cases are given below, each with its answer.
compound	experimental-system	parameter-measured	measured
CNCCC(Oc1ccc(C(F)(F)F)cc1)c1ccccc1 (stereo unspecified) [Fluoxetine hydrochloride]	E. coli TESEC Mtb Alr	growth	0.411
Nc1ccc(S(=O)(=O)NC(=O)c2ccccc2)cc1 [Sulfabenzamide]	E. coli TESEC Mtb Alr	growth	0.406
Cc1ccc(S(=O)(=O)NC(=O)NN2CC3CCCC3C2)cc1 (stereo unspecified) [Gliclazide]	E. coli TESEC Mtb Alr	growth	0.404
CCCOc1ccc(C(=O)OCCN(CC)CC)cc1N [Proparacaine hydrochloride]	E. coli TESEC Mtb Alr	growth	0.408
C[C@]12CC[C@@H]3c4ccc(O)cc4CC[C@H]3[C@@H]1C[C@@H](O)[C@@H]2O [Estriol]	E. coli TESEC Mtb Alr	growth	0.432

# batch: return growth for each of the 3 compounds below
1. O=C(O)c1cccnc1Nc1cccc(C(F)(F)F)c1 [Niflumic acid]
2. CC(C)(C)NCC(O)c1ccc(O)c(CO)c1 (stereo unspecified) [Salbutamol]
3. N=C(N)c1ccc(OCCCCCOc2ccc(C(=N)N)cc2)cc1 [Pentamidine isethionate]

RESULT:
1: 0.244; 2: 0.43; 3: 0.28
